# Test system: Rattus norvegicus
# assay.info: Total AUC in rat at 2 mg/kg, po
# Assay type: ADME, organism-based
# Design: dose 2 mg/kg, route oral, time AUCmax
# details: in vivo
value.type: AUC (ng·h/mL)

1: CC[C@@H](Oc1nc(Oc2cccc(-c3cccc(CN)c3)c2)c(F)cc1F)C(=O)O
2: CC[C@@H](Oc1nc(Oc2cc(C)cc(-c3cccc(CN)c3)c2)c(F)cc1F)C(=O)O
(Q) Could you determine which record has the numerically smaller AUC? Candidates: 1 and 2 Let me know the label of the one you choose.
(A) 1

----------
# assay.info: Half life in rat at 2 mg/kg, po
# Type: ADME, organism-based
# details: in vivo
value.type: half-life (h)

item.smiles: CC[C@@H](Oc1nc(Oc2cc(C)cc(-c3cccc(CN)c3)c2)c(F)cc1F)C(=O)O
half-life / h: 2.2
--
item.smiles: CC[C@@H](Oc1nc(Oc2cccc(-c3cccc(CN)c3)c2)c(F)cc1F)C(=O)O
half-life / h: 2.8
